Form field: Plant response rating, Rice (one value per entry).
Tested on: rice (Oryra sativa)
Experiment: Test B flooded paddy test
Assay type: in vivo
Settings: Flood, 250 g ai/ha; 0 to 100 scale where 0 is no effect and 100 is complete control; 13 to 15 d
Protocol: Plant species in the flooded paddy test selected from rice (Oryra sativa), sedge, umbrella (small-flower umbrella sedge, Cyperus difformis), ducksalad (Heteranthera limosa), and barnyardgrass (Echinochloa crus-galli) were grown to the 2-leaf stage for testing. […] Treated plants and controls were maintained in a greenhouse for 13 to 15 d, after which time all species were compared to controls and visually evaluated. […]
Reply briefly: the number, and no unit.

Query :: Any idea what its Plant response rating, Rice is? The compound is CC(=O)Oc1cccc(C2CNC(=O)C2C(=O)Nc2cccc(F)c2F)c1 (stereo not drawn)
Result :: 15

---

System: barnyardgrass (Echinochloa crus-galli)
Test: Test A preemergence
Format: in vivo
Details: 500 g ai/ha, preemergence; 0 to 100 scale, 0 = no effect, 100 = complete control
Each record here notes measured Plant response rating, Barnyardgrass.
Keep the answer to the number alone.

compound="CCc1cc(C2CNC(=O)C2C(=O)Nc2cccc(F)c2F)cs1 (racemic)" measured_property="Plant response rating, Barnyardgrass" value_reported=90
compound="O=C(Nc1ccccc1F)C1C(=O)N(CC2CC2)CC1c1cccc(C(F)(F)F)c1 (stereo not shown)" measured_property="Plant response rating, Barnyardgrass" value_reported=0
compound="O=C1NCC(c2ccc(F)cc2F)C1C(=O)Nc1ccccc1F (stereo not shown)" measured_property="Plant response rating, Barnyardgrass" value_reported=80

Next, consider the following compound.
Query :: Test system barnyardgrass (Echinochloa crus-galli); read-out Plant response rating, Barnyardgrass; what value for Cc1cc(C2CNC(=O)C2C(=O)Nc2cccc(F)c2F)cs1 (racemic) ?
Result :: 90

---

System: redroot pigweed (Amaranthus retroflexus)
Experiment: Test G Post-Emergence Protocol
Assay type: in vivo
Conditions: Amaranthus retroflexus, post-emergence, 312 h, 62.5 g ai/ha, evaluated after 13 days, 100=total damage to plant, 0=no damage to plant, read-out: Pigweed, Redroot damage rating
Listed next: entries and their corresponding pest or weed control at 62.5 g/ha.
Report the figure in % without appending any unit label.

Below, 3 molecules whose answers are already recorded.
molecule="COCCOc1cc([C@@H]2CN(C)C(=O)[C@H]2C(=O)Nc2cccc(F)c2C)ccc1C (racemic)" value_reported=0
molecule="CC(C)OC(=O)c1cc([C@H]2CN(C)C(=O)[C@@H]2C(=O)Nc2ccccc2F)ccc1F (racemic)" value_reported=0
molecule="CN1C[C@H](c2ccc(C(F)(F)F)cc2)[C@@H](C(=O)Nc2cc(C#N)ccn2)C1=O (racemic)" value_reported=0

Okay, next one:
Query :: What does the record list as pest or weed control at 62.5 g/ha for CN1C[C@H](c2ccc(C(F)(F)F)cc2)[C@@H](C(=O)Nc2cnccc2[S+](C)[O-])C1=O (mixture of isomers) ?
Result :: 0

---

Tested on: Kochia (Kochia scoparia)
Experiment: Test A postemergence
Format: in vivo
Conditions: Bassia scoparia, post-emergence, 240 h, 125 g ai/ha, Postemergence, visual rating about 10 d after treatment; read-out: Kochia plant response rating (0 to 100 scale)
Here, each record is paired with measured pest or weed control at 125 g/ha data.
Give the number; % is assumed, so skip it.

compound=CC(C)=Cc1cc([C@H]2CN(C)C(=O)[C@@H]2C(=O)Nc2cccc(F)c2F)ccc1C(F)(F)F target_desc="Kochia (Kochia scoparia)" unit_string=% value_reported=20
compound=CN1C[C@H](c2ccc(C(F)(F)F)nc2)[C@@H](C(=O)Nc2cccc(F)c2F)C1=O target_desc="Kochia (Kochia scoparia)" unit_string=% value_reported=70
compound=CN1C[C@H](c2cccc(C#N)c2)[C@@H](C(=O)Nc2ccccc2F)C1=O target_desc="Kochia (Kochia scoparia)" unit_string=% value_reported=0
compound=COc1cc([C@H]2CN(C)C(=O)[C@@H]2C(=O)Nc2ccccc2F)ccc1F target_desc="Kochia (Kochia scoparia)" unit_string=% value_reported=0
compound=O=C1NC[C@H](c2csc3c2CCOC3)[C@H]1C(=O)Nc1cccc(F)c1F target_desc="Kochia (Kochia scoparia)" unit_string=% value_reported=0

Query :: Quick one: pest or weed control at 125 g/ha of C=CCOc1cccc(C2CN(C)C(=O)C2C(=O)Nc2ccccc2F)c1 (centres unmarked) ?
Result :: 40

Query :: What pest or weed control at 125 g/ha value was documented for this compound, CN1C[C@H](c2cccc(C#N)c2)[C@@H](C(=O)Nc2ccc(F)c(F)c2F)C1=O ?
Result :: 30

Query :: Need pest or weed control at 125 g/ha of CN1C[C@H](c2cccc(C(F)(F)F)c2)[C@@H](C(=O)Nc2ccccc2-n2cncn2)C1=O , thanks.
Result :: 0

Data origin: patent US12077503B2
